Record set: IC50 | Collagenase 3 (Homo sapiens, UniProt P45452) | literature, multiple sources.
ENDPOINT_LABEL: IC50

1) O=C(NO)[C@H]1CN(C(=O)OCCN2CCCCC2)CCN1S(=O)(=O)c1cc(F)c(Oc2ccc(Cl)cc2)c(F)c1 = < 50 nM
2) COc1cccc(CNC(=O)c2nc3sc4c(c3c(=O)[nH]2)CCS(=O)(=O)C4)c1 = < 100 nM
3) Cc1ccc(CC2Sc3ccccc3N(CC(=O)NO)C2=O)cc1 (stereo not shown) = 24 nM
4) O=C(CC(CCn1nnc2ccccc2c1=O)C(=O)O)c1cc2cc(OCCc3ccccc3Cl)ccc2o1 (racemic) = > 40000 nM
5) Cc1cc(COc2ccc(S(=O)(=O)N[C@@H]3[C@@H]4CC[C@@H](C4)[C@@H]3C(=O)NO)cc2)c2ccccc2n1 (relative stereo) = > 16700 nM
6) CC#CCOc1ccc(S(=O)(=O)CC2(C(=O)NO)CCN(C(=O)CN3CCN(C)CC3)CC2)cc1 = 2230 nM
7) CNC(=O)[C@@H](NC(=O)c1ccc(-c2cccc(CNC(=O)c3nc(C(F)(F)F)cs3)c2)o1)C(C)C = 6 nM
8) O=C(NO)[C@H]1CN(C(=O)N2CCOCC2)CCN1S(=O)(=O)c1cc(F)c(Oc2ccc(F)cc2)c(F)c1 = < 50 nM
9) CCCCCCN1CC(C(=O)O)N(S(=O)(=O)c2ccc(-c3ccc(Br)cc3)cc2)CC1=O (stereo not shown) = 82 nM
10) NC(=O)[C@@H](NC(=O)c1nc2sc3c(c2c(=O)[nH]1)CCC3)c1ccccc1 = 100 to 20000 nM
11) O=C1COc2cc(CNC(=O)c3nc4sc5c(c4c(=O)[nH]3)CCCC5)ccc2N1 = 100 to 20000 nM
12) O=C1COc2ccc(CNC(=O)c3ncnc4c([N+](=O)[O-])c[nH]c34)cc2N1 = 101 to 20000 nM
13) O=C(NO)[C@H]1CN(C(=O)OCc2ccccc2)CCN1S(=O)(=O)c1cc(F)c(Oc2ccc(Cl)cc2)c(F)c1 = < 50 nM
14) O=C(CN1CCOCC1)NC(=O)N1CCN(S(=O)(=O)c2cc(F)c(Oc3ccc(Cl)cc3)c(F)c2)[C@@H](C(=O)NO)C1 = < 50 nM
15) Cc1noc(-c2cc3cc(-c4nc(C(=O)NCc5ccc(F)cc5)[nH]c4C)ccc3[nH]2)n1 = 6 nM
16) Cn1nc(C(=O)NCc2ccc(C(=O)O)cc2)cc1-c1ccc2[nH]c(C#N)cc2c1 = 52 nM
